TGT: T1, recombinant biotinylated human PAR2 extracellular domain (residues 1-75), N-terminal AviTag, C-terminal Flag … (human, UniProt P55085 26-75, biotin on the AviTag (enzymatic biotinylation))
T1 construct: also called Bio-human-PAR2 ECD; human PAR2 ECD; not shown: N-terminal AviTag (Avidity LLC); C-terminal Flag and poly Histidine tags
PROTOCOL SUMMARY: HTRF competition with Par0067 IgG, scFv
OBSERVED PROPERTY: Fold IC50 (pH 6.0 v pH 7.4) (fold)
Field format: number, assumed fold, no unit text.

Solved cases below.
BINDER | Fold IC50 (pH 6.0 v pH 7.4), fold
PaB670093 scFv (scFv, V domains shown, purified scFv; also called ZZ1ODR-H04) VH: EVQLLESGGGLVQPGGSLRLSCAASGFTFSSYAMNWVRQAPGKGLEWVSTISYHHHLISHADSVKGRFTISRDNSKNTLYLQMNSLRAEDTAVYYCARINNDPMDVWGQGTLVTVSS VL: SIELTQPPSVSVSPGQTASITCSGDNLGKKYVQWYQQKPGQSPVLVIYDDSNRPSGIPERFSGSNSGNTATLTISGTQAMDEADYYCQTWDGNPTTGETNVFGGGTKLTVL | 3.2
PaB670106 scFv (scFv, V domains shown, purified scFv; also called ZZ1RD0-G02) VH: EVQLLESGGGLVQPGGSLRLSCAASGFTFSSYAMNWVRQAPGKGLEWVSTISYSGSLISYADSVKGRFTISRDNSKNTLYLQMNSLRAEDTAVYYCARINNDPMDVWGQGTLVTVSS VL: SIELTQPPSVSVSPGQTASITCSGDNLGKKYVQWYQQKPGQSPVLVIYDDSNRPSGIPERFSGSNSGNTATLTISGTQAMDEADYYCHTWDHNPHHHHTNHFGGGTKLTVL | 3.8

For the next question, use this binder.
## Task Give the measured Fold IC50 (pH 6.0 v pH 7.4) for PaB670105 scFv (scFv, V domains shown, purified scFv; also called ZZ1RD0-D01) VH: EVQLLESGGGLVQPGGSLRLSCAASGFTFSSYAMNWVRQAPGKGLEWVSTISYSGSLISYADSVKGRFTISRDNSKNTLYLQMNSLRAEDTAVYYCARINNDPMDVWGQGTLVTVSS VL: SIELTQPPSVSVSPGQTASITCSGDNLGKKYVQWYQQKPGQSPVLVIYDDSNRPSGIPERFSGSNSGNTATLTISGTQAMDEADYYCQHWHGNPHTGEHNHFGGGTKLTVL
## Result 6.7

Hello, the source for this data is patent US20180305450A1, in case you need it.
